Data provenance: paper PMC8178754

target: Ctf3 complex (Ctf3, Mcm16, Mcm22) (yeast, UniProt Q12748;Q12262;P47167); assay: fluorescence polarisation
Sequence (Q12748 whole entry, chain 1 of 3): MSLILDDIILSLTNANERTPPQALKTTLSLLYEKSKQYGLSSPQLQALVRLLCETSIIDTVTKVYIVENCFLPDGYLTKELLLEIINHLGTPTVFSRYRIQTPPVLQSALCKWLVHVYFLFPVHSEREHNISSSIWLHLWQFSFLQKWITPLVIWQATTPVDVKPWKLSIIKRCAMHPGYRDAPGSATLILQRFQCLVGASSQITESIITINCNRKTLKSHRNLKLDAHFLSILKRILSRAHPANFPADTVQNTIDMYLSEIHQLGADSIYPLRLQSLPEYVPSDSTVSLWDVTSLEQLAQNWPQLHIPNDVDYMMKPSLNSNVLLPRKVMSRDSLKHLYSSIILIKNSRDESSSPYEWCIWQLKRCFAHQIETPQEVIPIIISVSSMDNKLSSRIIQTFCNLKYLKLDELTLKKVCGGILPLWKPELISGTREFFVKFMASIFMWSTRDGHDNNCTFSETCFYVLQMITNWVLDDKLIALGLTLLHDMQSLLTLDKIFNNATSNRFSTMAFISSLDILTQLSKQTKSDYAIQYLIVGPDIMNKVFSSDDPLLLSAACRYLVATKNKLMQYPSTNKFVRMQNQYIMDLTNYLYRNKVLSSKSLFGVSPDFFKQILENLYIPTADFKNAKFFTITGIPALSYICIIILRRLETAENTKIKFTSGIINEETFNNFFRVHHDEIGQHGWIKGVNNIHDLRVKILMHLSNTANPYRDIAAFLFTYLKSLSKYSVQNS
Sequence (Q12262 whole entry, chain 2 of 3): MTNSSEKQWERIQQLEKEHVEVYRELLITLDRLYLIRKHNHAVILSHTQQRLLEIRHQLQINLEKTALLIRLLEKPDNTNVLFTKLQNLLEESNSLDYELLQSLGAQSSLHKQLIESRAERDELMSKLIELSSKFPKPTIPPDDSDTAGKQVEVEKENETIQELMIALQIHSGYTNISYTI
Sequence (P47167 whole entry, chain 3 of 3): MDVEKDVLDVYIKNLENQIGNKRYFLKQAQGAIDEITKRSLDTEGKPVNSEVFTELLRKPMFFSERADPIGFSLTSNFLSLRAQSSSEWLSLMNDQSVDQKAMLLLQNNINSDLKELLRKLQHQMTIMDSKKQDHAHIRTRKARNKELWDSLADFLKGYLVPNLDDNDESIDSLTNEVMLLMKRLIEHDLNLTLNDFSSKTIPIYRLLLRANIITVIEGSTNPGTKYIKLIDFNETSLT
Measure name: Kd

Could you tell me which Kd is on file for DDSDVNLIGSS (FITC-AHA on the N-terminus (FITC-AHA-DDSDVNLIGSS)) [FITC-Ulp2-KIM peptide (Ulp2-927-937)] ? ~900 nM
